system: Escherichia coli; assay: Antibacterial activity against Escherichia coli MTCC 739 at 200 ug/ml by cup-plate method; format: functional; details: read-out: DIZ
Met means recorded zone of inhibition at 200 µg/mL is 9 mm or above; Not met means it is below 9 mm.

O=C1N/C(=N\c2ccc(F)c(Cl)c2)S/C1=C\c1ccccc1[N+](=O)[O-]: Met
O=C1N/C(=N\c2ccc(F)c(Cl)c2)S/C1=C\c1ccc(Cl)cc1: Met
O=C1N/C(=N\c2ccc(Cl)cc2)S/C1=C\c1ccc(Cl)cc1: Not met
O=C1N/C(=N\c2ccc(F)c(Cl)c2)S/C1=C\c1ccccc1: Met
O=C1N/C(=N\c2ccc(Cl)cc2)S/C1=C\c1ccccc1: Met

Q: Is the recorded value of zone of inhibition at 200 µg/mL equal to or greater than 9 mm for this compound? O=C1N/C(=N\c2ccc(F)c(Cl)c2)S/C1=C\c1ccc(O)cc1
Result: Met
